Taken from paper PMC12748989.

Would you kindly list Average (percentage cell inhibition), Mastoparan PBMC for each of these compounds?
System: PBMC
settings: 12.5 µM
Write down the value, and be sure its unit follows.

The recorded Average (percentage cell inhibition), Mastoparan PBMC for CC[C@H](C)[C@H](N)C(=O)N[C@@H](CC(N)=O)C(=O)N[C@@H](CC(C)C)C(=O)N[C@@H](CCCCN)C(=O)N[C@@H](C)C(=O)N[C@@H](CC(C)C)C(=O)N[C@@H](C)C(=O)NCC(=O)N[C@@H](CC(C)C)C(=O)N[C@@H](C)C(=O)N[C@@H](CCCCN)C(=O)N[C@@H](CCCCN)C(=O)N[C@H](C(=O)N[C@@H](CC(C)C)C(N)=O)[C@@H](C)CC [G8] is 1.421%

The recorded Average (percentage cell inhibition), Mastoparan PBMC for CC[C@H](C)[C@H](N)C(=O)N[C@@H](CC(N)=O)C(=O)N1CCC[C@H]1C(=O)N[C@@H](CCCCN)C(=O)N[C@@H](C)C(=O)N[C@@H](CC(C)C)C(=O)N[C@@H](C)C(=O)N[C@@H](C)C(=O)N[C@@H](CC(C)C)C(=O)N[C@@H](C)C(=O)N[C@@H](CCCCN)C(=O)N[C@@H](CCCCN)C(=O)N[C@H](C(=O)N[C@@H](CC(C)C)C(N)=O)[C@@H](C)CC [P3] is -5.207%

The recorded Average (percentage cell inhibition), Mastoparan PBMC for CC[C@H](C)[C@H](N)C(=O)N[C@@H](CC(N)=O)C(=O)N[C@@H](CC(C)C)C(=O)N[C@@H](CCCCN)C(=O)N[C@@H](C)C(=O)N[C@@H](CC(C)C)C(=O)N[C@@H](C)C(=O)N[C@@H](C)C(=O)N[C@@H](CC(C)C)C(=O)N[C@@H](CC(N)=O)C(=O)N[C@@H](CCCCN)C(=O)N[C@@H](CCCCN)C(=O)N[C@H](C(=O)N[C@@H](CC(C)C)C(N)=O)[C@@H](C)CC [N10] is 1.8653%

---

measurement_kind: Average (percentage cell inhibition), Dmastoparan MDA-MB231 12.5uM (%)
Form entry: value (%) — number only.

# value of Average (percentage cell inhibition), Dmastoparan MDA-MB231 12.5uM, MDA-MB-231 cells, item `CC[C@H](C)[C@H](N)C(=O)N[C@@H](CC(N)=O)C(=O)N[C@@H](CC(C)C)C(=O)N[C@@H](CCCCN)C(=O)N[C@@H](C)C(=O)N[C@@H](CC(C)C)C(=O)N[C@@H](C)C(=O)N[C@@H](C)C(=O)N[C@@H](CC(C)C)C(=O)N[C@@H](C)C(=O)N[C@@H](CCCCN)C(=O)N[C@@H](CCCCN)C(=O)N[C@@H](Cc1c[nH]c2ccccc12)C(=O)N[C@@H](CC(C)C)C(N)=O` = 70.7641

# value of Average (percentage cell inhibition), Dmastoparan MDA-MB231 12.5uM, MDA-MB-231 cells, item `CC[C@H](C)[C@H](N)C(=O)N[C@@H](CC(N)=O)C(=O)N[C@@H](CC(C)C)C(=O)N[C@@H](CCCCN)C(=O)N[C@@H](C)C(=O)N[C@@H](CC(C)C)C(=O)N[C@@H](C)C(=O)N[C@@H](C)C(=O)N[C@@H](CC(C)C)C(=O)N[C@@H](C)C(=O)N[C@@H](CCCCN)C(=O)N[C@@H](CCCCN)C(=O)N[C@H](C(=O)N[C@@H](CCCNC(=N)N)C(N)=O)[C@@H](C)CC` = 9.085

# value of Average (percentage cell inhibition), Dmastoparan MDA-MB231 12.5uM, MDA-MB-231 cells, item `CC[C@H](C)[C@H](N)C(=O)N[C@@H](CC(N)=O)C(=O)N[C@@H](CC(C)C)C(=O)N[C@@H](CCCCN)C(=O)N[C@@H](C)C(=O)N[C@H](C(=O)N[C@@H](C)C(=O)N[C@@H](C)C(=O)N[C@@H](CC(C)C)C(=O)N[C@@H](C)C(=O)N[C@@H](CCCCN)C(=O)N[C@@H](CCCCN)C(=O)N[C@H](C(=O)N[C@@H](CC(C)C)C(N)=O)[C@@H](C)CC)[C@@H](C)CC` = 31.3138

---

System: PBMC
settings: 12.5 µM
measurement_kind: Average (percentage cell inhibition), Mastoparan PBMC (%)
Form entry: value (%) — number only.

The recorded Average (percentage cell inhibition), Mastoparan PBMC for `CC[C@H](C)[C@H](N)C(=O)N[C@@H](CC(N)=O)C(=O)N[C@H](C(=O)N[C@@H](CCCCN)C(=O)N[C@@H](C)C(=O)N[C@@H](CC(C)C)C(=O)N[C@@H](C)C(=O)N[C@@H](C)C(=O)N[C@@H](CC(C)C)C(=O)N[C@@H](C)C(=O)N[C@@H](CCCCN)C(=O)N[C@@H](CCCCN)C(=O)N[C@H](C(=O)N[C@@H](CC(C)C)C(N)=O)[C@@H](C)CC)[C@@H](C)CC` is 14.9456

The recorded Average (percentage cell inhibition), Mastoparan PBMC for `CC[C@H](C)[C@H](N)C(=O)N[C@@H](CC(N)=O)C(=O)N[C@@H](CC(C)C)C(=O)N[C@@H](CCCCN)C(=O)N[C@@H](C)C(=O)N[C@@H](CC(C)C)C(=O)N[C@@H](C)C(=O)N[C@@H](C)C(=O)N[C@@H](CC(C)C)C(=O)N[C@@H](C)C(=O)N[C@@H](CCCCN)C(=O)N[C@@H](CC(C)C)C(=O)N[C@H](C(=O)N[C@@H](CC(C)C)C(N)=O)[C@@H](C)CC` is 80.1821

The recorded Average (percentage cell inhibition), Mastoparan PBMC for `CC[C@H](C)[C@H](N)C(=O)N[C@@H](CC(N)=O)C(=O)N[C@@H](CC(C)C)C(=O)N[C@@H](CCCCN)C(=O)N[C@@H](C)C(=O)N[C@@H](CC(C)C)C(=O)N[C@@H](C)C(=O)N[C@@H](C)C(=O)NCC(=O)N[C@@H](C)C(=O)N[C@@H](CCCCN)C(=O)N[C@@H](CCCCN)C(=O)N[C@H](C(=O)N[C@@H](CC(C)C)C(N)=O)[C@@H](C)CC` is 7.302

The recorded Average (percentage cell inhibition), Mastoparan PBMC for `CC[C@H](C)[C@H](N)C(=O)N[C@@H](CC(N)=O)C(=O)N[C@@H](CC(C)C)C(=O)N[C@@H](CCCCN)C(=O)N[C@@H](C)C(=O)N[C@@H](CC(C)C)C(=O)N[C@@H](C)C(=O)N[C@@H](C)C(=O)N[C@@H](Cc1c[nH]cn1)C(=O)N[C@@H](C)C(=O)N[C@@H](CCCCN)C(=O)N[C@@H](CCCCN)C(=O)N[C@H](C(=O)N[C@@H](CC(C)C)C(N)=O)[C@@H](C)CC` is -4.349

The recorded Average (percentage cell inhibition), Mastoparan PBMC for CC[C@H](C)[C@H](N)C(=O)N1CCC[C@H]1C(=O)N[C@@H](CC(C)C)C(=O)N[C@@H](CCCCN)C(=O)N[C@@H](C)C(=O)N[C@@H](CC(C)C)C(=O)N[C@@H](C)C(=O)N[C@@H](C)C(=O)N[C@@H](CC(C)C)C(=O)N[C@@H](C)C(=O)N[C@@H](CCCCN)C(=O)N[C@@H](CCCCN)C(=O)N[C@H](C(=O)N[C@@H](CC(C)C)C(N)=O)[C@@H](C)CC [P2] is -4.49

The recorded Average (percentage cell inhibition), Mastoparan PBMC for `CC[C@H](C)[C@H](N)C(=O)N[C@@H](CC(N)=O)C(=O)N[C@@H](CC(C)C)C(=O)N[C@@H](CCCCN)C(=O)N[C@@H](C)C(=O)N[C@@H](CC(C)C)C(=O)N[C@@H](C)C(=O)N[C@@H](C)C(=O)N[C@@H](CC(C)C)C(=O)N1CCC[C@H]1C(=O)N[C@@H](CCCCN)C(=O)N[C@@H](CCCCN)C(=O)N[C@H](C(=O)N[C@@H](CC(C)C)C(N)=O)[C@@H](C)CC` is -7.837

---

System: MDA-MB-231 cells
The threshold is inclusive: Average (percentage cell inhibition), Dmastoparan MDA-MB231 12.5uM of exactly 20% counts as true (1); values below receive false (0).

Request: Tell me whether Average (percentage cell inhibition), Dmastoparan MDA-MB231 12.5uM is at least 20% here: `CC[C@H](C)[C@H](N)C(=O)N[C@@H](CC(N)=O)C(=O)N[C@@H](CC(C)C)C(=O)N[C@@H](CCCCN)C(=O)N[C@@H](C)C(=O)N[C@@H](CC(C)C)C(=O)N[C@@H](C)C(=O)N[C@@H](C)C(=O)N[C@H](C(=O)N[C@@H](C)C(=O)N[C@@H](CCCCN)C(=O)N[C@@H](CCCCN)C(=O)N[C@H](C(=O)N[C@@H](CC(C)C)C(N)=O)[C@@H](C)CC)[C@@H](C)O`
Response: false (0)

Request: Tell me whether Average (percentage cell inhibition), Dmastoparan MDA-MB231 12.5uM is at least 20% here: `CC[C@H](C)[C@H](N)C(=O)N[C@@H](CC(N)=O)C(=O)N[C@@H](CC(C)C)C(=O)N[C@@H](CCCCN)C(=O)N[C@@H](C)C(=O)N[C@@H](CC(C)C)C(=O)N1CCC[C@H]1C(=O)N[C@@H](C)C(=O)N[C@@H](CC(C)C)C(=O)N[C@@H](C)C(=O)N[C@@H](CCCCN)C(=O)N[C@@H](CCCCN)C(=O)N[C@H](C(=O)N[C@@H](CC(C)C)C(N)=O)[C@@H](C)CC`
Response: false (0)

Request: Tell me whether Average (percentage cell inhibition), Dmastoparan MDA-MB231 12.5uM is at least 20% here: `CC[C@H](C)[C@H](N)C(=O)N[C@@H](CC(N)=O)C(=O)N[C@@H](CC(C)C)C(=O)N[C@@H](CCCCN)C(=O)N[C@@H](C)C(=O)N[C@@H](CC(C)C)C(=O)N[C@@H](C)C(=O)N[C@@H](C)C(=O)N[C@@H](CC(C)C)C(=O)N[C@@H](C)C(=O)N[C@@H](Cc1c[nH]c2ccccc12)C(=O)N[C@@H](CCCCN)C(=O)N[C@H](C(=O)N[C@@H](CC(C)C)C(N)=O)[C@@H](C)CC`
Response: true (1)

Request: Tell me whether Average (percentage cell inhibition), Dmastoparan MDA-MB231 12.5uM is at least 20% here: `CC[C@H](C)[C@H](N)C(=O)N[C@@H](CC(N)=O)C(=O)N[C@@H](CC(C)C)C(=O)N[C@@H](CO)C(=O)N[C@@H](C)C(=O)N[C@@H](CC(C)C)C(=O)N[C@@H](C)C(=O)N[C@@H](C)C(=O)N[C@@H](CC(C)C)C(=O)N[C@@H](C)C(=O)N[C@@H](CCCCN)C(=O)N[C@@H](CCCCN)C(=O)N[C@H](C(=O)N[C@@H](CC(C)C)C(N)=O)[C@@H](C)CC`
Response: true (1)

Request: Tell me whether Average (percentage cell inhibition), Dmastoparan MDA-MB231 12.5uM is at least 20% here: `CC[C@H](C)[C@H](N)C(=O)N[C@@H](CC(N)=O)C(=O)N[C@@H](CC(C)C)C(=O)N[C@@H](CCCCN)C(=O)N[C@@H](C)C(=O)N[C@@H](CC(C)C)C(=O)N[C@@H](C)C(=O)N[C@@H](C)C(=O)N[C@@H](CC(C)C)C(=O)N[C@@H](C)C(=O)N[C@@H](CC(N)=O)C(=O)N[C@@H](CCCCN)C(=O)N[C@H](C(=O)N[C@@H](CC(C)C)C(N)=O)[C@@H](C)CC`
Response: true (1)

Request: Tell me whether Average (percentage cell inhibition), Dmastoparan MDA-MB231 12.5uM is at least 20% here: `CC[C@H](C)[C@H](N)C(=O)N[C@@H](CC(N)=O)C(=O)N[C@@H](CC(C)C)C(=O)N[C@@H](CCCCN)C(=O)N[C@@H](C)C(=O)N[C@@H](CC(C)C)C(=O)N[C@@H](C)C(=O)N[C@@H](Cc1c[nH]c2ccccc12)C(=O)N[C@@H](CC(C)C)C(=O)N[C@@H](C)C(=O)N[C@@H](CCCCN)C(=O)N[C@@H](CCCCN)C(=O)N[C@H](C(=O)N[C@@H](CC(C)C)C(N)=O)[C@@H](C)CC`
Response: true (1)

Request: Tell me whether Average (percentage cell inhibition), Dmastoparan MDA-MB231 12.5uM is at least 20% here: `CC[C@H](C)[C@H](N)C(=O)N[C@@H](CC(N)=O)C(=O)N[C@@H](CC(C)C)C(=O)N[C@@H](CCCCN)C(=O)N[C@@H](C)C(=O)N[C@@H](CC(C)C)C(=O)N[C@@H](C)C(=O)N[C@@H](C)C(=O)N1CCC[C@H]1C(=O)N[C@@H](C)C(=O)N[C@@H](CCCCN)C(=O)N[C@@H](CCCCN)C(=O)N[C@H](C(=O)N[C@@H](CC(C)C)C(N)=O)[C@@H](C)CC`
Response: true (1)

Request: Tell me whether Average (percentage cell inhibition), Dmastoparan MDA-MB231 12.5uM is at least 20% here: `CC[C@H](C)[C@H](N)C(=O)N[C@@H](CC(N)=O)C(=O)N[C@@H](CC(C)C)C(=O)N[C@@H](CCCCN)C(=O)N[C@@H](C)C(=O)N[C@@H](CC(C)C)C(=O)N[C@@H](C)C(=O)N[C@@H](C)C(=O)N[C@@H](CCCCN)C(=O)N[C@@H](C)C(=O)N[C@@H](CCCCN)C(=O)N[C@@H](CCCCN)C(=O)N[C@H](C(=O)N[C@@H](CC(C)C)C(N)=O)[C@@H](C)CC`
Response: false (0)
